- study.system: MGLL (Mus musculus, UniProt O35678)
- Sequence (O35678 1-303): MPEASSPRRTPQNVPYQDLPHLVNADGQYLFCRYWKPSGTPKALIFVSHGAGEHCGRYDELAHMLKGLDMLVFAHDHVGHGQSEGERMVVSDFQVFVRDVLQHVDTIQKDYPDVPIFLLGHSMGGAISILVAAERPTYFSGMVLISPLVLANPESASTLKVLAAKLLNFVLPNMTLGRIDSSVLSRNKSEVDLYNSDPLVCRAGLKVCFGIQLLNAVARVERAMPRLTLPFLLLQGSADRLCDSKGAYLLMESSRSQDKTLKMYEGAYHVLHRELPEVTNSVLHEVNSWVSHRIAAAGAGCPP
measured.parameter: IC50

Illustrative cases are given below, each with its answer.
Consider O=C(OC(C(F)(F)F)C(F)(F)F)N1CCC2(CCN(Cc3ccc(C(F)(F)F)cc3N3CC4COCC4C3)CC2)C1 (centres unmarked) [Example 188] . Its measured IC50 is 100 to 1000 nM

For O=C(OC(C(F)(F)F)C(F)(F)F)N1CCC2(CC1)CN(Cc1ccc(C(F)(F)F)cc1N1CCOCC1)C2 [Example 36] the compound record lists IC50 as < 100 nM

The value of IC50 measured for the compound CCN1CCC2(CCN(c3cc(C(F)(F)F)ccc3CN3CCN(C(=O)OC(C(F)(F)F)C(F)(F)F)CC3)CC2)C1 [Example 183] turned out to be < 100 nM

Looking up CN1CC2CN(c3cc(Cl)ccc3CN3CCN(C(=O)OC(C(F)(F)F)C(F)(F)F)CC3)CC2C1 (centres unmarked) [Example 206] , I see its IC50 listed as 100 to 1000 nM

New cases:
Record summary for O=C(OC(C(F)(F)F)C(F)(F)F)N1CCC2(CC1)CN(Cc1ccc(Cl)cc1N1CCCC1)C2 [Example 34] : reported IC50 = < 100 nM

For this compound ( O=C(OC(C(F)(F)F)C(F)(F)F)N1CCC2(CC1)CN(Cc1c(Cl)cccc1N1CCCCC1)C2 [Example 45] ), measured IC50 is < 100 nM

Memo: CC(=O)N1CC2(CCN(c3cc(Cl)ccc3CN3CCN(C(=O)OC(C(F)(F)F)C(F)(F)F)CC3)C2)C1 [Example 176] , reported IC50: < 100 nM
